From: PubChem BioAssay (NCI)

system: SK-MEL-2 melanoma; experiment: NCI tumour cell line growth inhibition, 48 h
# TGI per record follows

Examples with answers:
| Compound | TGI |
| --- | --- |
| O=C1C[C@H](CCC(=O)OCc2ccccc2)NC(=O)C[C@H](CCC(=O)OCc2ccccc2)NC(=O)C[C@H](CCC(=O)OCc2ccccc2)N1 | > 100 µM |
| COC(=O)[C@H](COC(=O)/C=C/c1ccc(OC(C)=O)c(OC(C)=O)c1)NC(=O)/C=C/c1ccc(OC(C)=O)c(OC(C)=O)c1 | 35.2 µM |
| COc1ccc(C(c2cc3c(cc2O)OCO3)N2CCOCC2)cc1OC (stereo not given) | 32.5 µM |
| NC(CC(=O)O)(Cc1ccccc1)C(=O)O (stereo not given) | > 100 µM |
| O=C(/C=C/c1ccc2c(c1)OCO2)CC(=O)/C=C/c1ccc2c(c1)OCO2 | > 100 µM |
| O=C(N/N=C(\c1nc2ccc(Cl)cc2[nH]c1=O)C(O)c1ccccc1Cl)c1ccncc1 (stereo not given) | > 100 µM |

# TGI of "CCCc1c(C(=O)OCC)[nH]c(C(=O)CCC(=O)c2[nH]c(C(=O)OCC)c(CCC)c2C(=O)OCC)c1C(=O)OCC" = > 100 µM

What the record says about CCOC(=O)NC1CC2CCC1(OC)C=C2C (stereo not given) : TGI is > 100 µM

TGI in this record for "O=C(O)c1ccccc1Nc1ccc2nnc(-c3ccncc3)n2n1" : 9.08 µM

The compound "CCN(CC)CC[n+]1cc2cc(OC)c(OC)cc2c2ccc3cc4c(cc3c21)OCO4" showed TGI equal to 4.59 µM

The reported value for Nc1ncnc2c1ncn2C1OC(COC2C(CO)OC(OC(C(=O)O)C(O)C(OP(=O)(O)O)C(O)C(=O)O)C(O)C2O)C(O)C1O (stereo not given) in terms of TGI is > 100 µM

Lookup result for "CCOC(=O)c1cc(C#N)[nH]c1-c1ccsc1" ; measured TGI: > 100 µM

Entry "Cc1ccc(/C=N/NS(=O)(=O)c2ccc(/C=C3\NC(=O)NC3=O)cc2)cc1" , TGI reported as > 100 µM

Input "Clc1ccc2c(NCCNc3nc(N4CCCC4)nc4ccccc34)ccnc2c1" . Output TGI: 3.85 µM

Lab note: measured TGI of "Clc1ccc(-c2nnc(-c3c(Cl)c(Cl)c(Cl)c(Cl)c3-c3nc4ccccc4[nH]3)o2)cc1" was > 100 µM

Query "Cc1ccc(S(=O)(=O)Nn2c(O)c(C#N)c(-c3ccc(N(C)C)cc3)c(C#N)c2=O)cc1" yields TGI of > 50 µM

Recorded TGI (compound "COc1ccc(N=CN(C)C)c(C)c1" ): 30.4 µM

Reported TGI of "Cc1cc2nc(C(Cl)Cl)nc(-c3ccccc3)n2n1" : > 100 µM

Record "c1ccc2c(c1)[nH]c1c2ncc2[nH]c3ccccc3c21" , field TGI: 33.7 µM

Form field TGI, entry "O=c1c2cc(S(=O)(=O)Nc3c(Cl)cccc3Cl)ccc2ncn1NS(=O)(=O)c1ccc2ccccc2c1" : > 62.5 µM

====

test system: HL-60(TB) leukemia; assay: NCI tumour cell line growth inhibition, 48 h
Measured metric: TGI

# example entries with known answers
| Compound | Target desc | Result |
| --- | --- | --- |
| N#CSc1ccc(S(N)(=O)=O)cc1 | HL-60(TB) leukemia | 37.1 µM |
| CCOC(=O)NC1CC2CCC1(OC)C=C2C (stereo unspecified) | HL-60(TB) leukemia | > 100 µM |
| Cc1nnc2n1N=C(c1cc(F)c(Cl)cc1Cl)/C(=C/c1ccc3c(c1)OCO3)S2 | HL-60(TB) leukemia | > 100 µM |
| O=C(N/N=C(\c1nc2ccc(Cl)cc2[nH]c1=O)C(O)c1ccccc1Cl)c1ccncc1 (stereo unspecified) | HL-60(TB) leukemia | > 100 µM |
| CN(C)c1nc(=NCc2cccnc2)ss1 | HL-60(TB) leukemia | > 10 µM |

Turning now to a further compound:
TGI for "CCCN1C(=O)CNC(=O)c2[nH]cnc21" is > 100 µM

====

system: SK-MEL-28 melanoma; assay: NCI tumour cell line growth inhibition, 48 h
Measured metric: TGI

| Compound | TGI |
| --- | --- |
| Nc1nc(-c2ccccc2)cc(-c2ccc(Cl)cc2)c1-c1nc2ccccc2o1 | 32.6 µM |

Sample C=CCC1C(=O)Nc2cccc3ncn(c23)C1=O (stereo not drawn) ; TGI observed: > 100 µM

Measured TGI of O=C(N/N=C(\c1nc2ccc(Cl)cc2[nH]c1=O)C(O)c1ccccc1Cl)c1ccncc1 (stereo not drawn) : > 100 µM

The reported TGI of the compound COc1cccc(C2c3cc4c(cc3OC(N3CCCCC3)C2C)OCO4)c1OC (stereo not drawn) was 46.7 µM

What the record says about "COC(=O)Cc1cc(=O)n2c([nH]c3ccccc32)c1C#N" : TGI is > 100 µM

compound "COc1ccc(N=CN(C)C)c(C)c1" , TGI observed: 85.6 µM

====

tested on: HCT-116 colon; test: NCI tumour cell line growth inhibition, 48 h; in the data active means GI50 below about 0.43 µM; inactive means the rest
Please reply with one of these outcomes: class 1 (active), class 0 (inactive)

Some solved entries appear below for comparison.
| Compound | Assigned class |
| --- | --- |
| c1ccc2c3c(ccc2c1)-c1c(ccc2c(NCCCCN4CCCCC4)cccc12)C3 | class 0 |
| Nc1nc(-c2ccccc2)cc(-c2ccc(Cl)cc2)c1-c1nc2ccccc2o1 | class 0 |
| Cc1cc2nc(C(Cl)Cl)nc(-c3ccccc3)n2n1 | class 0 |
| Clc1ccc2c(NCCNc3nc(N4CCCC4)nc4ccccc34)ccnc2c1 | class 1 |
| CC(C)(C)c1cc(-c2nc3c(F)c(F)c(F)c(F)c3[nH]2)cc(C(C)(C)C)c1O | class 0 |
| COc1cc2c3c(n(CCCN4CCCC(O)C4)c(=O)c2cc1OC)-c1cc2c(cc1C3=O)OCO2 (centres undefined) | class 1 |
| COc1cc(C)c(NC(=O)CN(C)C)cc1Nc1nc(Nc2cccc(F)c2C(N)=O)c2cc[nH]c2n1 | class 0 |
| Oc1c(I)cc(I)cc1CN(Cc1ccccn1)Cc1ccccn1 | class 0 |

Now consider a different compound.
## Task // outcome(item) with item = "CCOCCOC[C@H]1CCCN(c2ccnc3sc(C(N)=O)c(N)c23)C1"
## Result class 0

====

Below, each of the molecules is paired with its reported TGI value.
tested on: NCI-H522 lung; test: NCI tumour cell line growth inhibition, 48 h
Write it as a number; the unit µM goes unstated.

The molecule listed as "COc1ccc2nc(-c3cc4c([nH]c5ccccc54)c(-c4ccc(F)c(F)c4)n3)[nH]c2c1" shows TGI equal to 33.8

TGI for "O=C(COc1ccc(Cl)cc1Cl)N/N=C/C=C/c1ccc([N+](=O)[O-])o1" is 2.83

Given item COc1ccc(C2C(C=O)C(N3CCN(C)CC3)=Nc3nc4ccccc4n32)cc1 (configuration not stated) , the value recorded as its TGI is 25.6

====

test system: BT-549 breast; assay: NCI tumour cell line growth inhibition, 48 h
Measured metric: TGI (µM)
Reply numerically in µM, unit not repeated.

| Structure notation | TGI (µM) |
| --- | --- |
| O=C(COc1ccc(Cl)cc1Cl)N/N=C/C=C/c1ccc([N+](=O)[O-])o1 | 58 |

compound "COC(=O)[C@H](COC(=O)/C=C/c1ccc(OC(C)=O)c(OC(C)=O)c1)NC(=O)/C=C/c1ccc(OC(C)=O)c(OC(C)=O)c1" , TGI observed: 34.9

====

Recorded TGI values for a group of molecules are listed next.
tested on: SN12C renal; test: NCI tumour cell line growth inhibition, 48 h

Here is how some molecules turned out for TGI.
| Molecule | Result |
| --- | --- |
| O=c1cc(-c2cccc(OCc3ccccc3)c2)[nH]c2cc3c(cc12)OCO3 | > 22.1 µM |
| O=S(O)c1cc(Cl)cc(Cl)c1OCc1ccccc1 | > 100 µM |
| N#Cc1nn(-c2cc(=O)[nH]c3ccc(Br)cc23)c(N)c1C#N | > 100 µM |
| CC1C(O)Oc2cc3c(cc2C1c1ccccc1O)OCO3 (stereo unspecified) | > 100 µM |
| CC1=C[C@@H]2[C@@H](CC(CO)=C[C@H]3[C@@H]4C(C)(C)[C@]4(OCC(C)C)[C@H](OCC(C)C)[C@@H](C)[C@]23O)C1=O | 4.22 µM |

// CC(C)C1COC(c2ccc3ccccc3c2-c2c(O[Si](C)(C)C(C)(C)C)ccc3ccccc23)=N1 (stereo unspecified) : TGI value = 33.2 µM

Lab book: TGI of "CCCN1C(=O)CNC(=O)c2[nH]cnc21" noted as > 100 µM

Reported TGI ( COc1cccc(C2c3cc4c(cc3OC(N3CCCCC3)C2C)OCO4)c1OC (stereo unspecified) ) = 96.8 µM
